Tested on: Streptococcus pyogenes 801 (SPY 801)
Experiment: Minimum Inhibitory Concentration (MIC) determination, agar with 5% sheep blood
Assay type: cell-based
Conditions: Mueller Hinton agar containing 5% sheep blood
Experimental: Overnight grown cultures of Methicilin resistant Staphylococcus aureus 32 (MRSA 32), Methicilin resistant Staphylococcus epidermidis 118 (MRSE 118), Vancomycin resistant enterococci 303 (VRE 303) in Tryptic Soya broth were diluted in Mueller Hinton Broth to give optical density matching with MacFarland tube 0.5 standard. Cultures were further diluted 1:10 in Mueller Hinton broth. […] These plates were incubated for 24 hrs at 35° C. and MIC results recorded. […]
Items are presented alongside their recorded MIC.
Number only, in µg/mL; omit the unit.

Observe how each entry below is paired with its result.
# MOLECULE, TEST VALUE
data = [
    ("CS(=O)(=O)OC[C@H]1CN(c2ccc(N3CCC4(CC3)COCO4)c(F)c2)C(=O)O1 [Example 129]", 8),
    ("CC(=O)NC[C@H]1CN(c2ccc(N3CCC(F)(CO)CC3)c(F)c2)C(=O)O1 [Example 9]", 2),
]

query: API: value(readout= MIC, system= Streptococcus pyogenes 801 (SPY 801), query= CC(=O)NC[C@H]1CN(c2ccc(N3CCC(F)(COS(C)(=O)=O)CC3)c(F)c2)C(=O)O1 [Example 12] )
result: 0.25
